- MEASUREMENT TARGET: CA-IX (Homo sapiens)
- Construct: HT-29 cells (CA-IX highly expressing cells, purchased from Sumitomo Dainippon Pharma Co., Ltd.); host or cells: HT-29 cells
- ASSAY TEXT: Cell binding inhibition assay (acetazolamide as inhibitor, HT-29 cells)
- CONDITION PARAMETERS: IC50 of inhibitor acetazolamide against binding of the radioactive labeled compound to HT-29 cells, 2 h; larger value = higher affinity of labeled compound for CA-IX; read-out: IC50 (nM, mean ± SD)
EXPERIMENTAL READOUT: IC50 (nM)

Use these answered entries as a reference point.
MOLECULE	UNITS TEXT	IC50
NS(=O)(=O)c1nn2cc(-c3ccc(NC(=O)CN4CCN(CC(=O)O)CCN(CC(=O)N[C@@H](CCCCNC(=O)CCCc5ccc(Br)cc5)C(=O)O)CCN(CC(=O)O)CC4)cc3)nc2s1.[111In+3] [[^111In]IS-DO2A-ALB3]	nM	288
Cc1ccc(CCCC(=O)NCCCC[C@H](NC(=O)CN2CCN(CC(=O)O)CCN(CC(=O)Nc3ccc(-c4cn5nc(S(N)(=O)=O)sc5n4)cc3)CCN(CC(=O)O)CC2)C(=O)O)cc1.[111In+3] [[^111In]IS-DO2A-ALB2]	nM	165

I: NS(=O)(=O)c1nn2cc(-c3ccc(NC(=O)CN4CCN(CC(=O)O)CCN(CC(=O)N[C@@H](CCCCNC(=O)CCCc5ccc(I)cc5)C(=O)O)CCN(CC(=O)O)CC4)cc3)nc2s1.[111In+3] [[^111In]IS-DO2A-ALB1]
II: NS(=O)(=O)c1nn2cc(-c3ccc(NC(=O)CN4CCN(CC(=O)O)CCN(CC(=O)N[C@@H](CCCCNC(=O)CCCc5ccccc5)C(=O)O)CCN(CC(=O)O)CC4)cc3)nc2s1.[111In+3] [[^111In]IS-DO2A-ALB4]
Ask: Hi team, can someone confirm which has the larger IC50: I or II ? Thanks. Label of pick, please.
Result: I
(I: 571 nM, II: 105 nM)
